B1: LCOR (parent)
chain: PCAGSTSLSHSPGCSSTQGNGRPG

Variants of: B1
Assay: protein stability index of a GFP-peptide fusion (GPS, HEK-293T) (PSI 1-6); higher = more stable;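 note: lentivirally expressed fusions sorted by FACS into six bins by GFP to DsRed ratio, PSI derived from sequencing read proportions per bin multiplied by bin number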
Details: c terminus: a fixed tail appended
Parameter protein stability index: see the listing below.

Solved cases (2 shown):
PCAGSTSLSHGPGCSSTQGNGRPG : 2.96
PCAGSTSLSHSPGCYSTQGNGRPG : 2.92

In: Recorded protein stability index of `PCAGSTSLSHSPGCSSTMGNGRPG` , please.
Out: 3.01

Data origin, for the record: the supplement of paper PMC10567573
